assay.target: T1, DR2a (human, UniProt P01903 26-216, limits assumed)
T1 construct: mature
assay.overview: competition binding assay, purified HLA-DR, biotinylated reference peptide (not named), L243 capture
pIC50: −log10 of the molar value. Where no end group is shown, it is not given here. [ ]: non-standard residue; d: D form. Ala(indol-4-yl) = N[C@@H](Cc1cccc2[nH]ccc12)C(=O)O; Chg = N[C@H](C(=O)O)C1CCCCC1; Idg = not defined here
measured.parameter: pIC50

Ac-[Chg]RF[Ala(indol-4-yl)]KNI (not fully specified; printed as Ac(Chg)RF(4′-IndolylAla)KNI, also called Entry 79) [Ac(Chg)RF(4′-IndolylAla)KNI]    5.45

I = Ac-V[Chg]RFFK (not fully specified; printed as AcV(Chg)RFFK, also called Entry 85) [AcV(Chg)RFFK]
II = Ac-[Idg]RFFKNI (not fully specified; printed as Ac(Idg)RFFKNI; reading uncertain, also called Entry 64) [Ac(Idg)RFFKNI]
Out of I and II , name the one with the higher pIC50. Kindly give the label for the entry you pick. II
(II: 7.77, I: 6.16)

Value source: patent US8598312B2
